All figures here come from patent US10806746B2.

# Tested on: DU145 cells
# test-protocol: MTS viability assay, DU145 prostate cancer cells
# Assay type: cell-based, human
# condition-notes: Table 6, 48 h, read-out: DU145 CC50
recorded-metric: CC50 (µM)
Express the result in µM but write the number alone.

**Query** So what's the measured CC50 for this one? CCCCCCCCCCCCCCCCOC[C@H](COC1O[C@H](CN)[C@@H](O)[C@H](O)[C@H]1NCCCN)OC (stereo partly shown)
**Result** 18.5

**Query** And the next one, CCCCCCCCCCCCCCCCOC[C@H](COC1O[C@H](CN)[C@@H](O)[C@H](O)[C@H]1NCCCCCCCCCCCCN)OC (stereo partly shown) ?
**Result** 7.5

**Query** And the next one, CCCCCCCCCCCCCCCCOC[C@H](COC1O[C@H](CNCCCN)[C@@H](O)[C@H](O)[C@H]1N)OC (stereo partly shown) ?
**Result** 16.5

**Query** And the next one, CCCCCCCCCCCCCCCCOC[C@H](COC1O[C@H](CNCCCCCCCCCCCCN)[C@@H](O)[C@H](O)[C@H]1N)OC (stereo partly shown) ?
**Result** 3.8
